tested on: NCI-H460 lung; assay: NCI tumour cell line growth inhibition, 48 h
READOUT KIND: TGI

# COMPOUND, VALUE REPORTED
measured = [
    ("c1c[nH]c(-c2ccc(-c3ccc[nH]3)c3nsnc23)c1", "> 100 µM"),
    ("CS(=O)(=O)OCC(CCl)(CCl)CCl", "> 100 µM"),
    ("CC(C)OP(=O)(OC(C)C)C(=NCCN=C(NNc1ccc([N+](=O)[O-])cc1)P(=O)(OC(C)C)OC(C)C)NNc1ccc([N+](=O)[O-])cc1", "> 100 µM"),
    ("CCOC(=O)NC(=O)c1cn(CCCO)c(=O)[nH]c1=O", "> 100 µM"),
    ("CCOC(=O)c1cn2c(nc1=O)N[C@H]1CCCC[C@@H]12", "> 100 µM"),
    ("COc1cc(NS(C)(=O)=O)ccc1Nc1cc(C)[nH]c2ccc3nccc3c12", "> 100 µM"),
    ("CO[C@H]1/C=C(/C)CCC[C@H](C)[C@H](O)[C@@H](C)C(=O)C(C)(C)[C@@H](O)CC(=O)O[C@@H]1/C(C)=C/c1csc(C)n1", "> 100 µM"),
    ("CC1=NN(c2cccc(Cl)c2)C2(SCC(=O)N2c2nc3ccccc3s2)/C1=C\\c1ccccc1O (stereo not drawn)", "> 100 µM"),
    ("CC(C)C(C)/C=C\\C(C)C1CCC2C3=CC=C4CC(O)CCC4(C)C3CCC21C (stereo not drawn)", "> 53.3 µM"),
    ("O=C(/C=C\\c1ccc(Cl)c(Cl)c1)c1ccc(Cl)cc1Cl", "54.8 µM"),
    ("CC1CCC(C(=O)O)(C(Br)C(=O)O)CC1 (stereo not drawn)", "> 100 µM"),
    ("O=C(O)/C=C(/C(=O)O)C12CCN3CC4=CCOC5CC(=O)NC1C5C4CC32 (stereo not drawn)", "> 100 µM"),
    ("CCOC(=O)C(=C=C=C(c1ccccc1)c1ccccc1)C(=O)OCC", "46.5 µM"),
    ("CN1CCN(CCCn2c(=O)c3sc4ncccc4c3n3nnc(-c4ccccc4)c23)CC1", "13.7 µM"),
    ("Fc1cc2[nH]ncc2c2c3c(c(-c4cn[nH]c4)nc12)CCCC3", "4.69 µM"),
    ("N=C(N)SCc1ccc2c(c1)Sc1ccccc1O2", "21.5 µM"),
    ("NS(=O)(=O)c1cc(Cl)c(NC(=S)NC(=O)Nc2ccc(Cl)c(Cl)c2)c(Cl)c1", "> 100 µM"),
    ("COc1cccc(CCCNC(=O)Cc2cc(OC)c(OC)cc2CO)c1", "> 100 µM"),
    ("Cc1ccc(-c2[nH]c(=O)n(C3OC(CO)C(O)C(O)C3O)c(=O)c2C#N)cc1 (stereo not drawn)", "> 100 µM"),
    ("CC(C)=Cc1cc(C(=O)Nc2ccc(Cl)c(Cl)c2)nc(N)n1", "> 100 µM"),
    ("O=C(/C=C/c1ccc(Cl)cc1)c1ccc(Nc2ccnc3cc(Cl)ccc23)cc1", "> 100 µM"),
    ("COc1cc(C2c3cc4c(cc3OC(C)(O)C2C)OCO4)cc(OC)c1OC (stereo not drawn)", "> 100 µM"),
    ("COc1cc(/C=C/c2cc(O)c(C(C)=O)c(O)c2)cc2c1O[C@]1(C)CC[C@@H](O)C(C)(C)[C@H]1C2", "57.5 µM"),
    ("Cc1ccc(S(=O)(=O)N/N=C/C2(c3ccccc3)c3ccccc3-c3ccccc32)cc1", "18.2 µM"),
    ("CCN(CCCN(CC)C(=O)Nc1c(C)cccc1C)C(=O)Nc1c(C)cccc1C", "> 100 µM"),
    ("Cn1cnc([N+](=O)[O-])c1Sc1nc2ccccc2[nH]1", "64.9 µM"),
    ("COc1cc2c(c(OC)c1OC)-c1ccc(OC)c(=O)cc1C(NC(=O)c1ccc(N=[N+]=[N-])cc1)CC2 (stereo not drawn)", "0.0613 µM"),
    ("N#CC(C#N)=CNC(N)=S", "> 100 µM"),
    ("CCOC(=O)c1cc2nc3ccccc3c(=O)n2c2ccccc12", "> 10 µM"),
    ("CC1=CC(O)(c2ccc(-c3ccccc3Cl)cc2)OC1=O (stereo not drawn)", "> 100 µM"),
    ("ClCc1cccc(Cn2cnc3ncnc(Cl)c32)c1", "4.45 µM"),
    ("CCCCCCN(CCCCCC)C(=O)Cc1c2n(c3ccccc13)Cc1ccccc1-2", "> 100 µM"),
    ("CCOP(=O)(OCC)C(c1ccc(F)cc1)N(C(=O)NC(F)(F)F)c1ccc(OC)cc1 (stereo not drawn)", "> 100 µM"),
]
